target: von Willebrand factor (VWF) (Homo sapiens, UniProt P04275 P04275:764-2813); assay: filter; Bmax 20%; 2 mM CaCl2, 37 C; settings: tags: factor VIII free, Haematologic Technologies Inc; label: 5'-32P
pKd: −log10 of the molar value.

Binder: ACGAACUGCCCUCGAUCGACGCACAGACGUUUUUU (ssRNA, mAmCmGmAmAmCmUmGfCfCfCmUmCmGmAmUmCmGmAfCmGfCmAmCmAmGmAmCmGfUmUmUmUmUmU-idT) [T79 vrt3]
pKd: 7.18
